What inhibition was measured for each of the following?
# Species on record: Oryctolagus cuniculus
# experiment: Inhibition of Protein phosphatase 1 at 1 mM
Give the value in % but do not write % after it.

Noted for O=C(O)C1C2CCC3(COC(=O)C13)O2 (centres undefined) : its inhibition reads 20

Noted for O=C1OC(=O)C2C3OC(CC3COC3CCCCC3)C12 (centres undefined) : its inhibition reads 90

Noted for CC(=O)OCC1CC2OC1C1C(=O)OC(=O)C21 (centres undefined) : its inhibition reads 100

Noted for CC(=O)OCC12C=CC(O1)C1C(=O)OC(=O)C12 (centres undefined) : its inhibition reads 30

Noted for O=C1OC(=O)C2C3CCC(O3)C12 (centres undefined) : its inhibition reads 100

Noted for `C[C@@]12C(=O)OC(=O)[C@]1(C)C1CCC2O1` : its inhibition reads 90

Noted for CC(=O)OCC1=CC2OC1C(C(=O)O)C2C(=O)O (centres undefined) : its inhibition reads 80

Noted for O=C1OC(=O)C2C1C1C=CC2(CO)O1 (centres undefined) : its inhibition reads 18

Noted for CC(=O)OCC12C=CC(O1)C(C(=O)O)C2C(=O)O (centres undefined) : its inhibition reads 40

Noted for O=C1OC(=O)C2C3OC(C=C3COC3CCCCC3)C12 (centres undefined) : its inhibition reads 60

Noted for CC(=O)OCC1=CC2OC1C1C(=O)OC(=O)C21 (centres undefined) : its inhibition reads 92

Noted for O=C1OC(=O)C2C3C=CC(O3)C12 (centres undefined) : its inhibition reads 98

Noted for CC12CCC(C)(O1)C(C(=O)O)C2C(=O)O (centres undefined) : its inhibition reads 1

Noted for CC(=O)OCC12CCC(O1)C1C(=O)OC(=O)C12 (centres undefined) : its inhibition reads 70

====

# Organism: Oryctolagus cuniculus
# experiment: Inhibition of Protein phosphatase 2A1 (PP2A1) at 0.1 mM
What inhibition was measured for each of the following?

Noted for O=C1OC(=O)C2C1C1C=CC2(CO)O1 (stereo not drawn) : its inhibition reads 5%

Noted for CC(=O)OCC12C=CC(O1)C1C(=O)OC(=O)C12 (stereo not drawn) : its inhibition reads 5%

Noted for CC(=O)OCC12CCC(O1)C1C(=O)OC(=O)C12 (stereo not drawn) : its inhibition reads 5%
